Numbers sourced from ChEMBL document CHEMBL4350957.

# SUBJECT OF TEST: Glutamate receptor 2 (Rattus norvegicus, UniProt P19491)
# Sequence (P19491 whole entry): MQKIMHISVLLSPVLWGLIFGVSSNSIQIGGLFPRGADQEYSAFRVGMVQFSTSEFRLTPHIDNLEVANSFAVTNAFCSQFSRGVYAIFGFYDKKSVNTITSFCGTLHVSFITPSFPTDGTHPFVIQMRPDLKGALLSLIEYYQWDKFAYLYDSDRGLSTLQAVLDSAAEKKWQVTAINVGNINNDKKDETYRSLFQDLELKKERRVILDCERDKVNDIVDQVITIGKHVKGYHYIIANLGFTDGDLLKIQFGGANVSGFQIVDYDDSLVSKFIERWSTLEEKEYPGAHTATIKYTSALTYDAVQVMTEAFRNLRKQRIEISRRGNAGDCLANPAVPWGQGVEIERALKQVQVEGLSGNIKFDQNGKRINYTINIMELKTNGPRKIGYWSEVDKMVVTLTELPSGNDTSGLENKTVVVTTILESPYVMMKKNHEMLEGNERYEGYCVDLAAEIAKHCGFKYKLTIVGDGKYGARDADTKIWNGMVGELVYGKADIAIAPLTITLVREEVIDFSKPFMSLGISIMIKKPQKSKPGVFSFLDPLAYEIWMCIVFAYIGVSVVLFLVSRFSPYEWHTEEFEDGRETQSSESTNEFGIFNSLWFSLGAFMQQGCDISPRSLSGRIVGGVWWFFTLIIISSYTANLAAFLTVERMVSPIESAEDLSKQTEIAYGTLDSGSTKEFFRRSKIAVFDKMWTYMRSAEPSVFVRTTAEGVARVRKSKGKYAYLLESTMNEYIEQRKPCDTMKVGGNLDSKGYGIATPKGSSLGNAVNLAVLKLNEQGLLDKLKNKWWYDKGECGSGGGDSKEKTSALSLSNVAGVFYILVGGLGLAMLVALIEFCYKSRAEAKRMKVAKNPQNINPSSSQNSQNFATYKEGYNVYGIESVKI
pKi: −log10 of the molar value.
Entries annotated with measured pKi
ENDPOINT LABEL: pKi

molecule="Cn1nnc(-c2onc(O)c2CC(N)C(=O)O)n1 (centres undefined)" operator_symbol== measured_result=8.41
molecule="CCCn1nnc(O)c1CC(N)C(=O)O (racemic)" operator_symbol== measured_result=5.49
molecule="CCCn1nc(O)c(CC(N)C(=O)O)n1 (racemic)" operator_symbol=< measured_result=4.00
molecule="CCn1nc(O)c(CC(N)C(=O)O)n1 (racemic)" operator_symbol=< measured_result=4.00

* * *

The reader will find pKi measurements below, all made with Glutamate receptor 1 (Rattus norvegicus, UniProt P19490).
Sequence (P19490 whole entry): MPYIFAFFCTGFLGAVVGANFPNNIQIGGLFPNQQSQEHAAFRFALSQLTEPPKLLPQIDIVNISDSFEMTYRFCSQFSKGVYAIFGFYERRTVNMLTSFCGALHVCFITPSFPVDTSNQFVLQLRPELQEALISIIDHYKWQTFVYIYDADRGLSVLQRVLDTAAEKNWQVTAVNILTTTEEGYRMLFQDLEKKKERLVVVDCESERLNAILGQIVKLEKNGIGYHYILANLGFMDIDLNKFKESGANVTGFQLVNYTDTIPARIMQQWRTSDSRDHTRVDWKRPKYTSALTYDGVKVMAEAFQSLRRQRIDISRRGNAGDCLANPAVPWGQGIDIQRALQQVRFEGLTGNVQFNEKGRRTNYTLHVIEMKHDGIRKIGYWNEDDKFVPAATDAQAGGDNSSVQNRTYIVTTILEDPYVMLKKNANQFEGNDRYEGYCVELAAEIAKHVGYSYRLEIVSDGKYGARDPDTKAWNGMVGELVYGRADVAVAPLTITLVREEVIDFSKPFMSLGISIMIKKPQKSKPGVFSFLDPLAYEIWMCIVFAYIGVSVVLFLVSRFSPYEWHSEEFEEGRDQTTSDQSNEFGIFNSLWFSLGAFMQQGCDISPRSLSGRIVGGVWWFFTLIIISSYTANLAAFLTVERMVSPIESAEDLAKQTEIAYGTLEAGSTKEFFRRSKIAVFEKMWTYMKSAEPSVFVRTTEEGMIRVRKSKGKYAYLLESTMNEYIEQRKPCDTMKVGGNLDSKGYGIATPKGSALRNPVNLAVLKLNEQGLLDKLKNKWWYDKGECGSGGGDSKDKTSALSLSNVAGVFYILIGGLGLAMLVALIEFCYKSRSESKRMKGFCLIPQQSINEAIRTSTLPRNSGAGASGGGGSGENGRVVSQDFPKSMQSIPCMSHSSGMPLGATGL
pKi: −log10 of the molar value.
ENDPOINT LABEL: pKi

compound="CCCn1nc(O)c(CC(N)C(=O)O)n1 (racemic)" endpoint_label=pKi measured_result="< 4.00"
compound="CCn1nc(O)c(CC(N)C(=O)O)n1 (racemic)" endpoint_label=pKi measured_result="< 4.00"

* * *

Entries annotated with measured Ki
# SUBJECT OF TEST: Glutamate receptor 3 (Rattus norvegicus, UniProt P19492)
# Sequence (P19492 whole entry): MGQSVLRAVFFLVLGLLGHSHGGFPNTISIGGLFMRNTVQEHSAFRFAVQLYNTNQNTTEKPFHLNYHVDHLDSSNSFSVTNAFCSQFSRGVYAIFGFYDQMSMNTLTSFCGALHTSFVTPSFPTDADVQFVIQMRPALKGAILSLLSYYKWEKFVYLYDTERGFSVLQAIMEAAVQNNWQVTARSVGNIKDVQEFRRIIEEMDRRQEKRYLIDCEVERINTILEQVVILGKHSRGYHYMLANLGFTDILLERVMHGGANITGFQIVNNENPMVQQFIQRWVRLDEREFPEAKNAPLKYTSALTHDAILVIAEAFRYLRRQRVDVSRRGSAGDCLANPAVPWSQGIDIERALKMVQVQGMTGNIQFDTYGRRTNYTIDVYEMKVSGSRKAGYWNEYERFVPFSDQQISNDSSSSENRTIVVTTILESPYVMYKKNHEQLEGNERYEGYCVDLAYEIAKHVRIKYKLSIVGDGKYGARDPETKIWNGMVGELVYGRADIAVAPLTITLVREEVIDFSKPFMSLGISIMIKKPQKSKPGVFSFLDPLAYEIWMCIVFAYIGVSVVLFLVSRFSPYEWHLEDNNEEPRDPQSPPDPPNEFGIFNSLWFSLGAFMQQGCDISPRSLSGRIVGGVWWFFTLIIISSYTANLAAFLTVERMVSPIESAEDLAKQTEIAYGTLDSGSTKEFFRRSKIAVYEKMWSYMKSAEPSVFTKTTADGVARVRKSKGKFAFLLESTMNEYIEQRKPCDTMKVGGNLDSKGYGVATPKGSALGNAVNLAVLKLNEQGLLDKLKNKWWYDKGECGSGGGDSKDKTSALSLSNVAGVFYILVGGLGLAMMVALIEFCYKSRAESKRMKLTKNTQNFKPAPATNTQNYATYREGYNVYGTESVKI
ENDPOINT LABEL: Ki (µM)

compound="Cn1nnc(-c2onc(O)c2CC(N)C(=O)O)n1 (stereo not drawn)" subject_of_test="Glutamate receptor 3 (Rattus norvegicus, UniProt P19492)" operator_symbol== measured_result=0.0022
compound="CCn1nc(O)c(CC(N)C(=O)O)n1 (racemic)" subject_of_test="Glutamate receptor 3 (Rattus norvegicus, UniProt P19492)" operator_symbol== measured_result=100
compound="CCCn1nc(O)c(CC(N)C(=O)O)n1 (racemic)" subject_of_test="Glutamate receptor 3 (Rattus norvegicus, UniProt P19492)" operator_symbol=> measured_result=100

* * *

Entries annotated with measured EC50
# SUBJECT OF TEST: Glutamate receptor 4 (Homo sapiens, UniProt P48058)
ENDPOINT LABEL: EC50 (µM)

compound="Cn1nnc(O)c1CC(N)C(=O)O (racemic)" subject_of_test="Glutamate receptor 4 (Homo sapiens, UniProt P48058)" unit_name=µM operator_symbol== measured_result=56.2
compound="CCn1nc(O)c(CC(N)C(=O)O)n1 (racemic)" subject_of_test="Glutamate receptor 4 (Homo sapiens, UniProt P48058)" unit_name=µM operator_symbol=> measured_result=1000
compound="CCCn1nnc(O)c1CC(N)C(=O)O (racemic)" subject_of_test="Glutamate receptor 4 (Homo sapiens, UniProt P48058)" unit_name=µM operator_symbol== measured_result=51

* * *

# SUBJECT OF TEST: Ionotropic glutamate receptor NMDA 1/2D (Rattus norvegicus, UniProt P35439+Q62645)
# Sequence (Q62645 whole entry, other chains not shown): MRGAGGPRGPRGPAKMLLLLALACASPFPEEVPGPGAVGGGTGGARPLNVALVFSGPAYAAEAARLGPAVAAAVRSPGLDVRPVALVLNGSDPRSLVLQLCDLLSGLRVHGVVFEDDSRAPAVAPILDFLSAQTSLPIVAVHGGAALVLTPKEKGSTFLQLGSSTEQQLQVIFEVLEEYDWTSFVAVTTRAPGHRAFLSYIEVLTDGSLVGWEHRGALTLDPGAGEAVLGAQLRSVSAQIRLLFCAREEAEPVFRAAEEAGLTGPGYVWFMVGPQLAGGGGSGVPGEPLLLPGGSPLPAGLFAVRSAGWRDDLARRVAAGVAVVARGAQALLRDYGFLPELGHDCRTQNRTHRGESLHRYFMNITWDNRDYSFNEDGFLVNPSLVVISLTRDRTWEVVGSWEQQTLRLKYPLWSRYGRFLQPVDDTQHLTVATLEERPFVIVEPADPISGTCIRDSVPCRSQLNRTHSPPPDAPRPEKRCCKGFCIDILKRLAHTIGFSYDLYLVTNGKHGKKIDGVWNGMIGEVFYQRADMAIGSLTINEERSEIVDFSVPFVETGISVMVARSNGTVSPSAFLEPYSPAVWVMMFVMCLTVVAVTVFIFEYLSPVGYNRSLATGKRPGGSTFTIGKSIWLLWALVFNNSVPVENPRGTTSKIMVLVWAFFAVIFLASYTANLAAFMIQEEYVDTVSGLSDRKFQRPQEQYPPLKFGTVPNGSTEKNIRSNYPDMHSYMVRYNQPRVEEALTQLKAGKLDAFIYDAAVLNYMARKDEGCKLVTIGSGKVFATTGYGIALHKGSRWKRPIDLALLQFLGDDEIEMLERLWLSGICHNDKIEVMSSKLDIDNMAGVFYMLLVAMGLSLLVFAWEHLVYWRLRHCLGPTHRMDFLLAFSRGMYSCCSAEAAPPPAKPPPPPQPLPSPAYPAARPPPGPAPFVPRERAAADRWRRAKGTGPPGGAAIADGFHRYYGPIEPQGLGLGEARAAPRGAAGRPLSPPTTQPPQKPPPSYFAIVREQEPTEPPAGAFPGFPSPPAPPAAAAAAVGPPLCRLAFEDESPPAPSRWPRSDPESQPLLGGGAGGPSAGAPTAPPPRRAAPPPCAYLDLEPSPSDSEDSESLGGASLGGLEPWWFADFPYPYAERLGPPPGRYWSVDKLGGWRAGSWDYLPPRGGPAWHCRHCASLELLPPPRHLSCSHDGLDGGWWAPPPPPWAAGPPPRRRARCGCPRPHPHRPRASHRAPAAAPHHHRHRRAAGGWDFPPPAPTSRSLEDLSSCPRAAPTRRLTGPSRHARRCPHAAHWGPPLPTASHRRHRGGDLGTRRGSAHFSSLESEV
pEC50: −log10 of the molar value.
ENDPOINT LABEL: pEC50

compound="Cn1nc(O)c(C(N)C(=O)O)n1 (racemic)" measured_result=4.24

* * *

The reader will find EC50 measurements below, all made with Glutamate receptor 1 (Homo sapiens).
ENDPOINT LABEL: EC50

compound="CCCn1nc(O)c(CC(N)C(=O)O)n1 (racemic)" measured_result="> 1000 µM"
compound="CCn1nc(O)c(CC(N)C(=O)O)n1 (racemic)" measured_result="> 1000 µM"

* * *

The reader will find Ki measurements below, all made with Glutamate receptor 4 (Rattus norvegicus, UniProt P19493).
Sequence (P19493 whole entry): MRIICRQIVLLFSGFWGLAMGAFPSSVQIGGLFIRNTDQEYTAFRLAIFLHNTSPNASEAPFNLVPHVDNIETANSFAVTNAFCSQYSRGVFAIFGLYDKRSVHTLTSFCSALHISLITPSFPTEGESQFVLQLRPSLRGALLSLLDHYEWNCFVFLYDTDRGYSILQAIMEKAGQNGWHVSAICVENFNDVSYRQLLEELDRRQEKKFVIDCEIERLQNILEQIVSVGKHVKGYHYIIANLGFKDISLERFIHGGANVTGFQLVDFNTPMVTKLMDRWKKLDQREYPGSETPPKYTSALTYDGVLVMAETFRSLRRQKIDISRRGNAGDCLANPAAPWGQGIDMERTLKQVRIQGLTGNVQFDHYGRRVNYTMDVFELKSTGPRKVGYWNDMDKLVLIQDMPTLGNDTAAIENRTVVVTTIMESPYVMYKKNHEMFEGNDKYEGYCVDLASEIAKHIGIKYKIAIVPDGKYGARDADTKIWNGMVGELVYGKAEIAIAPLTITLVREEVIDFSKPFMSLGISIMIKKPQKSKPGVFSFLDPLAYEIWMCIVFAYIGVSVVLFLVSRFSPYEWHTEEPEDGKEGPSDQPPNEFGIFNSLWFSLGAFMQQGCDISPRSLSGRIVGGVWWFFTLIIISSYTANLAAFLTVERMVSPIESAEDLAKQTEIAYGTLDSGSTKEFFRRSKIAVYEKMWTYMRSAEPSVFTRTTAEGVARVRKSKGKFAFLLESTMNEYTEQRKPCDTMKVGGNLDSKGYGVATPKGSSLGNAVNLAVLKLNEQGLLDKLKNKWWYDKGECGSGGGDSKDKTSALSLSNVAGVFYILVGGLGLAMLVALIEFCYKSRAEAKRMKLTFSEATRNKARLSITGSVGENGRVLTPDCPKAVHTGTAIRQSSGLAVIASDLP
ENDPOINT LABEL: Ki (µM)

molecule="Cn1nnc(-c2onc(O)c2CC(N)C(=O)O)n1 (centres undefined)" unit_name=µM operator_symbol== measured_result=0.0027
molecule="CCn1nc(O)c(CC(N)C(=O)O)n1 (racemic)" unit_name=µM operator_symbol=> measured_result=100
molecule="CCCn1nnc(O)c1CC(N)C(=O)O (racemic)" unit_name=µM operator_symbol== measured_result=100
molecule="CCCn1nc(O)c(CC(N)C(=O)O)n1 (racemic)" unit_name=µM operator_symbol=> measured_result=100
